# TEST NAME: qHTS for Inhibitors of human tyrosyl-DNA phosphodiesterase 1 (TDP1): qHTS in cells in presence of CPT; further: nearly all actives have a fitted effect of over 55% in size
# TEST CONTEXT: chicken DT40 Tdp1-/-;hTDP1 cells + 20 nM CPT, ATP luminescence, 48 h; series mostly up to 46.2 µM
Hit rate of the full screen: of about 420,000 compounds, about 50,000 (12%) were called active. Roughly 26% stayed inconclusive and do not appear here. The call rests on the fitted dose curve; in most records, active means well fitted inhibition curve with a large enough effect; inconclusive means small, poorly fitted or top-dose-only effect; inactive means flat fitted curve, though single readings scatter. The list comes from a sample in which actives are over-represented; it also holds close analogues and randomly drawn compounds.
Outcomes you can answer with include only these: active, inactive

Take a look at these entries with their results.
CC(C)NC(=O)Nc1ccc2c(c1)C(=O)N([C@H](C)CO)C[C@H](C)[C@@H](CN(C)Cc1ccc(C(F)(F)F)cc1)OCCCC[C@@H](C)O2: active
O=C1CSc2ccc(C(=O)NCc3ccccn3)cc2N1: inactive
C[C@@H]1CN([C@@H](C)CO)C(=O)c2cc(NS(C)(=O)=O)ccc2O[C@@H](C)CCCCO[C@H]1CN(C)C(=O)Nc1ccc2c(c1)OCO2: inactive

Recorded test outcome, item Cc1nn(-c2ccccc2)c(C)c1/C=C/C(=O)OC(C)C(N)=O (stereo not given) inactive

Look up the recorded call for O=C(c1cc2ccccc2o1)N1CCN(S(=O)(=O)c2ccc(Cl)s2)CC1 in this test. active

Field: outcome | Entry: CNC1(c2nnnn2-c2c(C)cccc2C)CCOC(C)(C)C1 (stereo not given) inactive

Identify the outcome logged in this assay for the compound shown: CCC(=O)/C(=C(/O)c1ccccc1)c1nc2ccccc2[nH]1 inactive

Returns: the outcome recorded for O=C(/C(=C/c1cccc(Cl)c1)c1nc2ccccc2[nH]1)c1ccccc1 in this assay. active

In this assay, the call recorded for CS(=O)(=O)N1CCN(C(=O)c2cc3ccccc3oc2=O)CC1 was what? inactive

Please indicate how the test categorized CCN(Cc1ccccc1)S(=O)(=O)c1cc(C(=O)O)ccc1OC . inactive

Values from PubChem BioAssay AID686979
